species: Homo sapiens; experiment: Selectivity ratio of IC50 for mTOR (unknown origin) to IC50 for PI3Kalpha (unknown origin)
endpoint: Ratio IC50
Reply: number alone, nothing else.

Guide cases for Ratio IC50, answers given:
>>> measured("COc1ncc(-c2ccc3nccc(-c4ccncc4)c3c2)cc1NS(=O)(=O)c1ccc(F)cc1F")
7.5
>>> measured("COc1ncc(-c2ccc3nc(N)nc(-c4ccncc4)c3c2)cc1NS(=O)(=O)c1ccc(F)cc1F")
4.1
>>> measured("COc1ncc(-c2cc3c(-c4ccncc4)ncnc3s2)cc1NS(=O)(=O)c1ccc(Cl)s1")
52

Then there is this compound:
For the compound COc1ncc(-c2ccc3ncnc(-c4ccncc4)c3c2)cc1NS(=O)(=O)c1ccc(F)cc1F , give its reported Ratio IC50.
2.1
